Quick list: self-cleavage per entry.
B1: CPEB3 Ribozyme (parent)
chain: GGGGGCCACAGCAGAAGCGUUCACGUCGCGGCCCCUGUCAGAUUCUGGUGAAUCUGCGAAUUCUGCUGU

# Variants of: B1
# Assay Text: self-cleavage, relative activity (ratio to wild type); higher = more cleavage; co-transcriptional
Measured Parameter: self-cleavage

Primary Sequence | Reported
GGGGGCCACAGCAGAGGCGUUCACGUCGCGGCCCCUGUCAGAUUCUGGUGAAUCUGUGAAUUCUGCUGU [A16G C57U] | 0.317
GGGGGCCACAGCAGAAGCGUUCACGUCGUGGCCCCUGUCAGAUUCUCGUGAAUCUGCGAAUUCUGCUGU [C29U G47C] | 0.62
GGGGGCCACAGCAGAAGCGUUCACGUCGCUGCCCCUGUCAGAUUCUGGUGAAUCUGCGUAUUCUGCUGU [G30U A59U] | 0.222
GGGGGCCACAGCAGAAGCGUUCACGUCGCGGCCCCUGUCAGAUUCUGGUCAAUCUGCGAAUUCGGCUGU [G50C U64G] | 0.844
GGCGGCCACAGCAGAAGCGUCCACGUCGCGGCCCCUGUCAGAUUCUGGUGAAUCUGCGAAUUCUGCUGU [G3C U21C] | 0.058
GGGGGGCACAGCAGACGCGUUCACGUCGCGGCCCCUGUCAGAUUCUGGUGAAUCUGCGAAUUCUGCUGU [C6G A16C] | 0.0895
GGGGGCCACAGCAGAAGCGUUCACGUCGCGGACCCUGUCAGAUUCUGGUGAAUCUGCGAAUUCUGAUGU [C32A C66A] | 0.698
GGGGGCCACAGCAGAAGCGUACACGUCGCGGCCCCUGUCAGAUUCUGGUGAAUCUGCGAAUUCUGCUUU [U21A G68U] | 0.976
GGGGGCCACAGCAGAAGGGUUCACGUCGCGGCCCCUGUCAGAUUCUGGUGAAUCUGCGAAUACUGCUGU [C18G U62A] | 0.142
GGGGGCCACAGCAGAAGCGUUCACGUCGCGGCCCCUGUCGGAUUCUGGUGAAUCUGCGAAAUCUGCUGU [A40G U61A] | 0.863
GGGGGCCACAGCAGAAGCGUUCACGUCGCGGCCCCUGUCACAUUCUGGUGAAUCUGCGACUUCUGCUGU [G41C A60C] | 0.262
GGGCGCCACAGCAGAAGCGUUCACGUCGCGGCCCCUGUCAGAUUCUGGUGAAUCUGCGAAUUCUUCUGU [G4C G65U] | 0.294
GGGGGCCACAGCAGAAGCGUUCACGUCGCGGCCCCUGUCAGAUUCUGGUGAACCUGCGAUUUCUGCUGU [U53C A60U] | 0.397
GGGGGCCACAGCAGAAGCGUUCACGUCGCGGCCCCCGUCAGAUUCUGGUGAAUUUGCGAAUUCUGCUGU [U36C C54U] | 0.973
GGGUGCCAGAGCAGAAGCGUUCACGUCGCGGCCCCUGUCAGAUUCUGGUGAAUCUGCGAAUUCUGCUGU [G4U C9G] | 0.974
GGGGGACACAGCAGAAGCGUUCACGUCGCGGUCCCUGUCAGAUUCUGGUGAAUCUGCGAAUUCUGCUGU [C6A C32U] | 0.123
GGGGGCCACAGCAGAAGCGUUCAAGUCGCGGCCCCUGUAAGAUUCUGGUGAAUCUGCGAAUUCUGCUGU [C24A C39A] | 0.349
GGGGGCCACAGAAGAAGCGUUCACGUCGCGGCCCCUGUCAGAUUCUGGGGAAUCUGCGAAUUCUGCUGU [C12A U49G] | 0.846
GGCGGCCACAGCAGAAGCGUUCACGUCGCGGCCCCUGUCAGAUUCUGGUGAAUCUGCGAAUGCUGCUGU [G3C U62G] | 0.0946
GGGGGCCACAGCAGAAGCGUUCACGUCGCGGCCCAUGUCAGAUUCGGGUGAAUCUGCGAAUUCUGCUGU [C35A U46G] | 0.356
GGGGGCCACAGCAGAAGCGUUCACGUCGCGGCCCCUGUCAGAUUCCGGUGAAUGUGCGAAUUCUGCUGU [U46C C54G] | 0.891
GGGGGCCACAGCAGAAGCGUUCACGUCGCGGCCCCUGUCAGAUUUUGGUGAACCUGCGAAUUCUGCUGU [C45U U53C] | 0.834
GGGGGCCACAGCAGAAGCGUUCACGUCGCGGCCCCUGACAGAUUCUCGUGAAUCUGCGAAUUCUGCUGU [U38A G47C] | 0.937
GGUGGCCACAGCAGAAGCGUUCACGUCGCGGCCCCUGUCAGAUGCUGGUGAAUCUGCGAAUUCUGCUGU [G3U U44G] | 0.115
GGGGCCCACAGCAGAAGCGUUCACGUCGCGGCCCCUGUCCGAUUCUGGUGAAUCUGCGAAUUCUGCUGU [G5C A40C] | 0.213
GGGGGCCACAGCAGAAGCGUUCACGUCGCGGCCCCUGUCAGAUUCUGGUGGACCUGCGAAUUCUGCUGU [A51G U53C] | 0.899
GGGGGCCACAGCAGAAACGUUCACGUCGCGGCCCCUGUCAGAUUCUGGUAAAUCUGCGAAUUCUGCUGU [G17A G50A] | 0.488
GGGGGCCACAGCAGAAGCGUUCACGUCGCGGCCCCUGUCAGAUUCUAGUGAAUCUGCGAAUUCUGCCGU [G47A U67C] | 0.976
GGGGGCCACAGCAGAAGCGUUCACGUCGCGGGCCCUGUCAGAUUCUGGUGAAUCUGCGAAUACUGCUGU [C32G U62A] | 0.26
GGGGGCCACAGCAUAAGCGUUCACGUCGCGGCCCCUGUCAGAUUCUGGUGAAUCUGCGAAUUGUGCUGU [G14U C63G] | 0.994
UGGGGCCACAGCAGAAGCGUUCACGUCGCGGCCCCUGUCAGAUUCUGGUGAAUCUGCUAAUUCUGCUGU [G1U G58U] | 0.137
GGGGGCCACAGCAGCAGCGUUCACGUCGCGGCCCCUAUCAGAUUCUGGUGAAUCUGCGAAUUCUGCUGU [A15C G37A] | 0.196
GGGAGCCACAGCAGAAGCGUUCACGUCGCGGCCCCUGGCAGAUUCUGGUGAAUCUGCGAAUUCUGCUGU [G4A U38G] | 0.107
GGGGGCCACAGCAUAAGCGUUCACGUCGCGACCCCUGUCAGAUUCUGGUGAAUCUGCGAAUUCUGCUGU [G14U G31A] | 0.305
GGGGACCACAGCAGAAGCGUUCACGUCGCGGCCCCUGUAAGAUUCUGGUGAAUCUGCGAAUUCUGCUGU [G5A C39A] | 0.533
GGGGGCCACAGCAGAAGCGUUCACGUCGCGGCCCCUGUCAGAUUCUGGUGUAUCUGCGAAUUCUGCUAU [A51U G68A] | 0.999
GGGGGCCACAGCAGAAGCGUUCACGUCGCCGCCCCUGUCAGAUUCUGGUGAAUCUGCGACUUCUGCUGU [G30C A60C] | 0.285
GGGGGCCACAGCAGAAGCGUUCACGUCGCGGCCCCUGUCAGAUUCAGGUGAAUCUGCGAAUUCUGCUAU [U46A G68A] | 1.02
GGGGGCCACAGCAGGAGCGUUCACGUCGCGGCCCCUGUCAGAUUCUGGUGAAUCUGCGAAUUCUGAUGU [A15G C66A] | 0.828
GGGGGCCACAGCAGAAUCGUUCACGUCGCGGCCCCUCUCAGAUUCUGGUGAAUCUGCGAAUUCUGCUGU [G17U G37C] | 0.159
GGGAGCCACAGCAGAAGCGUUCACGUCGCGGCCCCUGUCAGAUACUGGUGAAUCUGCGAAUUCUGCUGU [G4A U44A] | 0.646
GGGGGUCACAGCAGAAGCGUUCAAGUCGCGGCCCCUGUCAGAUUCUGGUGAAUCUGCGAAUUCUGCUGU [C6U C24A] | 0.582
GGGGGCCACAGCAGAAGCGUCCACGUCGCGGCCCCUGUCCGAUUCUGGUGAAUCUGCGAAUUCUGCUGU [U21C A40C] | 0.372
GGGGGCCACAGCAGAAGAGUUCACGUCGCGGCCCCUGUCAGAUUCUGGUGAAUCUGCGCAUUCUGCUGU [C18A A59C] | 0.0942
GGGGGCCACUGCAGAAGCGUUCACGUCGCGGCCCCUGUCAGAUUCUGGUGAAUCUGCGAAUUAUGCUGU [A10U C63A] | 0.825
GGGGGCCACAGCAGAAGCGUUCACGUCGCGGCCCCGGUCAGAUUCUGGUGAAUCUGGGAAUUCUGCUGU [U36G C57G] | 0.109
GGGGGCCACAGCAGAAGCGUUCACAUCGCGGCCCCUGUCACAUUCUGGUGAAUCUGCGAAUUCUGCUGU [G25A G41C] | 0.172
GGGGGCCACAGCAGAAGCGUUCACGUCGCGGCACCUGUCAGAUUCUGGUGAAUCGGCGAAUUCUGCUGU [C33A U55G] | 0.319
GGGGGCCGCAGCAGAAACGUUCACGUCGCGGCCCCUGUCAGAUUCUGGUGAAUCUGCGAAUUCUGCUGU [A8G G17A] | 0.0671
GGGGGCAACAGCAGAAGCGUUCACGUCGCGGCCCCUGUCAGAUUCUGGUGGAUCUGCGAAUUCUGCUGU [C7A A51G] | 0.514
GGGGGCCACAGCAGGAGCGUUCACGUCGCGGCCCCUGUCAGAUUCUGGUGAAUCUGCGAACUCUGCUGU [A15G U61C] | 0.892
GGGGGCCACAGCAGAAGCUUUCACGUCGCGGCCCCUGUCAGAUUCUGGUGAAUCUGCGAAUUCUGAUGU [G19U C66A] | 0.271
